Value source: patent US11292807B2

Would you mind telling me the reported Fold change in viability AVG of each entry?
Test system: SKOV3 (ovarian adenocarcinoma)
Test name: CIMA assay, cell viability, SKOV3
Experimental setup: SKOV; 50 ug/mL

Qu. Output measured Fold change in viability AVG for this item: CC/C=C\C/C=C\C/C=C\C/C=C\C/C=C\CCCC(=O)OCC(COC1OC(CO)C(O)C(O)C1O)OC(=O)CCC/C=C\C/C=C\C/C=C\C/C=C\C/C=C\CC (stereo not shown)
Ans. 1.02

Qu. Output measured Fold change in viability AVG for this item: CC/C=C\C/C=C\C/C=C\C/C=C\C/C=C\CCCC(=O)OCC(O)COC1OC(CO)C(O)C(O)C1O (stereo not shown)
Ans. 0.84

Qu. Output measured Fold change in viability AVG for this item: CCCCC/C=C\C/C=C\CCCCCCCC(=O)O
Ans. 0.73

Qu. Output measured Fold change in viability AVG for this item: CCCCCCCCCCCCCCCC(=O)OCC(COC1OC(CO)C(O)C(O)C1O)OC(=O)CCCCCCCCCCCCC (stereo not shown)
Ans. 0.90
